Attribution: ChEMBL document CHEMBL4513216

The following compounds are listed with their measured cytotoxicity at 10 µM values.
assay.text: Toxicity liver stage against HepG2, at 10uM
Assay type: cell-based
Parameters: test concentration 10 uM, cell line HepG2-A16-CD81EGFP
measurement.context: human, HepG2-A16-CD81EGFP cells; read-out: INHIBITION
Report the figure in % without appending any unit label.

O=C(CC1[C@H]2CN(Cc3ccc(F)cc3)C[C@@H]12)N1CCCC1 (stereo partly specified) ... -0.744
NC(=O)CN(Cc1ccc(Br)cc1)C(=O)c1cccnc1 ... 9.49
O=C(NCc1nncn1C1CC1)c1ccc(F)c(COCC2CC2)c1 ... 10.2
C[C@H]1C[C@H]2CN(C(=O)c3ccncn3)CC[C@@H]2O1 ... 4.93
CN(C)CCn1c(=O)oc2ccc(NC(=O)CC(C)(C)C)cc21 ... -2.28

Let us examine a further case.
Request: Looking for the measured cytotoxicity at 10 µM of Cc1nc(C2CCCN(C(=O)CCCOc3cccc(F)c3)C2)no1 (stereo unspecified) , can you help?
Result: 9.91
